Sourced from patent EP0111112A1

experiment: Dermal toxicity of pesticidal formulations in male albino rabbits; details: rabbit, in vivo, topical or ocular, 24 hours contact, observed 14 days
readout-label: LD50 at 336 h

Query string: Value lookup for LD50 at 336 h; key = CCOP(=S)(OCC)SCSC(C)(C)C
Result string: 1 to 2 mg/kg

* * *

test: Dermal toxicity of pesticidal formulations in male rats; details: rat, in vivo, topical or ocular, male Wistar rats, 24 hours contact, observed 14 days
readout-label: LD50 at 336 h

Query string: Value lookup for LD50 at 336 h; key = CCOP(=S)(OCC)SCSC(C)(C)C
Result string: 1 to 2 mg/kg
